target: HLA-DRB1*01:01 molecules (human (endogenous in homozygous EBV cells)); experiment: ELISA
assay readout: other
Just the number, please, no unit attached.

As a guide, the following entries are already answered.
# binder, other
measured = [
    ("KCIEWEKAQAGA [Art v 1_(25-36) Ala-34]", 8),
    ("KCAEWEKAQHGA [Art v 1_(25-36) Ala-27]", 2600),
    ("KCIAWEKAQHGA [Art v 1_(25-36) Ala-28]", 6),
    ("KCIEWAKAQHGA [Art v 1_(25-36) Ala-30]", 6),
    ("KCIEWEKGQHGA [Art v 1_(25-36) Gly-32]", 63),
    ("KCIEWEKAQHAA [Art v 1_(25-36) Ala-35]", 5),
]

Now turn to the next binder.
The binder KCIEWEAAQHGA [Art v 1_(25-36) Ala-31] showed other equal to 17
